biological target: Fuc(a1-2)Gal(b1-4)GlcNAc(b1-6)GalNAc; test: glycan array binding signal (z-score within array); higher = stronger binding; details: glycan notation: IUPAC condensed, linker removed
The full list was thinned out, with the strongest signals kept by preference.
# cutoff -0.2 applies to glycan array binding signal (z-score); >= gives Satisfied, < gives Not satisfied

Given ECL (Erythrina cristagalli), Q6YD91 (protein) VETISFSFSEFEPGNNDLTLQGAAIITQSGVLQLTKINQNGMPAWDSTGRTLYTKPVHIWDMTTGTVASFETRFSFSIEQPYTRPLPADGLVFFMGPTKSKPAQGYGYLGVFNNSKQDNSYQTLAVEFDTFSNPWDPPQVPHIGIDVNSIRSIKTQPFQLDNGQVANVVIKYDASSKILLAVLVYPSSGAIYTIAEIVDVKQVLPEWVDVGLSGATGAQRDAAETHDVYSWSFHASLPETND , state whether its glycan array binding signal (z-score) is at least -0.2. Satisfied

Now the binder AAA (Anguilla anguilla), Q7SIC1 (protein) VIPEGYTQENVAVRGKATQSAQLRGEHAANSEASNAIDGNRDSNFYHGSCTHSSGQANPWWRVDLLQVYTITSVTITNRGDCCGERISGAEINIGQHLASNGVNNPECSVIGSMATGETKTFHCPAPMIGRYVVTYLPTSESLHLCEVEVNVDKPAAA Satisfied

Let us now turn to APVPVTKLVCDGDTYKCTAYLDFGDGRWVAQWDTNVFHTG [PhoSpL (Pholiota squarrosa)] Not satisfied

Try EULS2 M4 (Oryza sativa) (protein) MVYCRANPNYAMTARNGAVVLAPANPKDEYQHWIKDMRWSTSIKDEEGYPAFALVNKATGQAIKHSLGQSHPVRLVPYNPEVMDESVLWTESRDVGNGFRCIRMVNNIYLNFDAFHGDKYHGGVRDGTDIVLWKWCEGDSLRWKIQPYYILEQKLISEEDLNSAVDHHHHHH next. Not satisfied

MGL (Homo sapiens), Q8IUN9 (protein) MTRTYENFQYLENKVKVQGFKNGPLPLQSLLQRLCSGPCHLLLSLGLGLLLLVIICVVGFQNSKFQRDLVTLRTDFSNFTSNTVAEIQALTSQGSSLEETIASLKAEVEGFKQERQAGVSELQEHTTQKAHLGHCPHCPSVCVPVHSEMLLRVQQLVQDLKKLTCQVATLNNNASTEGTCCPVNWVEHQDSCYWFSHSGMSWAEAEKYCQLKNAHLVVINSREEQNFVQKYLGSAYTWMGLSDPEGAWKWVDGTDYATGFQNWKPGQPDDWQGHGLGGGEDCAHFHPDGRWNDDVCQRPYHWVCEAGLGQTSQESH ? Satisfied

# iterate: Cohesin-mDCIR (Macaca mulatta) (protein) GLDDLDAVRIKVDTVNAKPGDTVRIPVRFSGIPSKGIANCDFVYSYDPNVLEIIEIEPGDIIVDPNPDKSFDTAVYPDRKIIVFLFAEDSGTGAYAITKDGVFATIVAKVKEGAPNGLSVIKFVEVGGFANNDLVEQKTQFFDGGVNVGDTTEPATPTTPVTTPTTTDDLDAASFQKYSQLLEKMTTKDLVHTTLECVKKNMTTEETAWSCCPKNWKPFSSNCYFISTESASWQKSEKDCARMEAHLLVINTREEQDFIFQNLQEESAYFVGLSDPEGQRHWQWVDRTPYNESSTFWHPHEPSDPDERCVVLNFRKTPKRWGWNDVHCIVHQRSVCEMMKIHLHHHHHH Satisfied

Entry to check: Cohesin-hDECTIN-1 (Homo sapiens) (protein) LDITSHHHHHHDDLDAVRIKVDTVNAKPGDTVRIPVRFSGIPSKGIANCDFVYSYDPNVLEIIEIEPGDIIVDPNPDKSFDTAVYPDRKIIVFLFAEDSGTGAYAITKDGVFATIVAKVKEGAPNGLSVIKFVEVGGFANNDLVEQKTQFFDGGVNVGDTTEPATPTTPVTTPTTTDDLDAASSSPCPPNWIIYEKSCYLFSMSLNSWDGSKRQCWQLGSNLLKIDSSNELGFIVKQVSSQPDNSFWIGLSRPQTEVPWLWEDGSTFSSNLFQIRTTATQENPSPNCVWIHVSVIYDQLCSVPSYSICEKKFM Satisfied

Would you mind doing UEA-I (Ulex europaeus), P22972 (protein) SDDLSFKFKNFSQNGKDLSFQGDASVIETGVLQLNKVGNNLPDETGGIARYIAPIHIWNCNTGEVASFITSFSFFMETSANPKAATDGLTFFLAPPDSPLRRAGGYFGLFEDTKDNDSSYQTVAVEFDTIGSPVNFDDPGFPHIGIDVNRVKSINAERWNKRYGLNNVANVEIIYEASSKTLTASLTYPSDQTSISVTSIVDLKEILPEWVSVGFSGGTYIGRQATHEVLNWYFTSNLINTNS as well? Satisfied

What do we get for DC-ASGPR-short (Homo sapiens) (protein) MTRTYENFQYLENKVKVQGFKNGPLPLQSLLQRLRSGPCHLLLSLGLGLLLLVIICVVGFQNSKFQRDLVTLRTDFSNFTSNTVAEIQALTSQGSSLEETIASLKAEVEGFKQERQAVHSEMLLRVQQLVQDLKKLTCQVATLNNNASTEGTCCPVNWVEHQDSCYWFSHSGMSWAEAEKYCQLKNAHLVVINSREEQNFVQKYLGSAYTWMGLSDPEGAWKWVDGTDYATGFQNWKPGQPDDWQGHGLGGGEDCAHFHPDGRWNDDVCQRPYHWVCEAGLGQTSQESH ? Satisfied

Entry source: the supplement of paper PMC8728848
